Test system: EKVX
Test: NCI tumour cell line growth inhibition, 48 h
Activity calls are given as the source filed them. No stated cut-off is given here; in the data, active = GI50 up to about 1.1 µM and inactive = higher.
In this exercise, the only acceptable responses are active, inactive

> print(dat)
                                   molecule  study.system  answer.label
1  CC(Oc1ccc2c(-c3ccc(Cl)cc3)cc(=O)oc2c1)C(=O)O (stereo not given)          EKVX      inactive
2  Cc1cc(C2(O)C=C(C(C)(C)C)C(=O)C(C(C)(C)C)=C2)c(C)cc1C1(O)C=C(C(C)(C)C)C(=O)C(C(C)(C)C)=C1          EKVX      inactive
3  CN(C)CCCNc1ccc2c(=O)n(CCN(C)C)c(=O)n3c4ccccc4c(=O)c1c23          EKVX        active
4  CCN(CC)c1ccc(/C=C/C2=NN(c3cccc(S(=O)(=O)O)c3)C3(C2)C(Cl)C(=O)N3c2nc3ccccc3s2)cc1 (stereo not given)          EKVX      inactive
5  OCC1OC2c3ccccc3COC2C1OCc1ccccc1 (stereo not given)          EKVX      inactive

--- query ---
Data request: What call does the record list for "[O-][n+]1c(-c2ccccc2)oc2ccccc21" ?
Data returned: inactive

====

Tested on: NCI-H522
Assay: NCI tumour cell line growth inhibition, 48 h
Active and inactive are the calls of the source. No stated cut-off is given here; in the data, active = GI50 up to about 1.1 µM and inactive = higher.
Measured Metric: GI50

> print(dat)
                                   compound  reported.measurement
1  COc1cc(Oc2nc3ccc(C(F)(F)F)cc3nc2-c2ccccc2)cc(OC)c1OC    25.1 µM (inactive)
2     C/C(=N\Nc1nc2ccccc2n1C)c1cc2ccccc2cn1    < 0.01 µM (active)
3  C/C1=C/C2OC(=O)C3(C)C2C(CC2(C)OC1=CC2=O)OC3(O)C(C)C (centres undefined)    14.8 µM (inactive)

Data request: Using the record for "C/C(=N\Nc1nc2cc(Cl)ccc2s1)c1ccccn1" , report its GI50.
Data returned: 0.189 µM (active)

====

System: HCT-116
Assay: NCI tumour cell line growth inhibition, 48 h
Active and inactive are the calls of the source. Rule as the data show it: active = GI50 up to about 1.1 µM and inactive = higher.
Measured Metric: GI50

> print(dat)
                                   compound  study.system  reported.measurement
1  CC(C)=CC(=O)CC(=O)C(=O)Nc1ccc(Cl)c(Cl)c1       HCT-116   > 100 µM (inactive)

Data request: Provide the documented GI50 with HCT-116 as the system for Fc1cccc(C2SCC3=Nc4ccccc4CN32)c1 (stereo not drawn)
Data returned: 27.8 µM (inactive)

Data request: Provide the documented GI50 with HCT-116 as the system for "Cn1c(=O)c2c(-c3ccccc3)onc2n(C)c1=O"
Data returned: 27.4 µM (inactive)

====

System: NCI-H460
Test: NCI tumour cell line growth inhibition, 48 h
Calls of active or inactive are those of the source. Rule as the data show it: active = GI50 up to about 1.1 µM and inactive = higher.
Measured Metric: GI50

Consider the worked cases shown below.
Compound	GI50
C/C1=C/C2OC(=O)C3(C)C2C(CC2(C)OC1=CC2=O)OC3(O)C(C)C (centres undefined)	42.5 µM (inactive)
N#Cc1cccc(N2C(=O)C3C4C=CC(C3C2=O)C2C(=O)N(c3cccc(C#N)c3)C(=O)C42)c1 (centres undefined)	> 63.1 µM (inactive)
C1=N\c2ccc(cc2)/N=C\c2ccccc2OCc2cccc(n2)COc2ccccc2/1	> 100 µM (inactive)
CC(C)=CC[C@]12CCN[C@H]1N(S(=O)(=O)c1ccccc1)c1ccccc12	14.5 µM (inactive)
CCN(CC)C(=S)SC1CCOP(=O)(N(CCCl)CCCl)N1C (centres undefined)	1.02 µM (active)

Data request: Using the record for "OCCN(/N=C\c1ccc2ccccc2c1)C1=NCCN1" , report its GI50.
Data returned: 29.4 µM (inactive)

Data request: Using the record for "O=[N+]([O-])c1c(O)c2nonc2c2nn(-c3ccccc3)nc12" , report its GI50.
Data returned: > 100 µM (inactive)

Data request: Using the record for "Cn1c(=O)c2c(-c3ccccc3)onc2n(C)c1=O" , report its GI50.
Data returned: 35.9 µM (inactive)

Data request: Using the record for C/C=C\C1OC1(C)c1cc(=O)c2c(C)cc3c(c2o1)C(=O)c1c(O)c(C2CC(C)(N(C)C)C(OC(C)=O)C(C)O2)cc(C2CC(N(C)C)C(O)C(C)O2)c1C3=O (centres undefined) , report its GI50.
Data returned: < 0.00375 µM (active)

Reference for the values: ChEMBL document CHEMBL1201862
